Test: Primary qHTS for inhibitors of nuclear receptor binding SET domain protein 2 (NSD2) in an isogenic RCH-ACV NSD2 p.E1099K mutant (9B) (AID 1645876); note: nearly all actives have a fitted effect of over 70% in size
Details: RCH-ACV (leukaemia line) NSD2 E1099K (9B) viability, CellTiter-Glo, 72 h; series mostly up to 44.9 µM
Inconclusive results are not listed. Active and inactive are the calls of the source. Calls come from the whole dose curve; as a rule, active = well fitted inhibition curve with a large enough effect; inconclusive = small, poorly fitted or top-dose-only effect; inactive = flat fitted curve, though single readings scatter.
Lab note: assign the record to one of active, inactive

Hello, I am checking results. What call was entered for Clc1ccc(-c2nc3sccn3c2/C=N/OCc2ccc(Cl)c(Cl)c2)cc1 ?
inactive

Consider next the compound O=C(Nc1cccc(Nc2nccc(Nc3cccc(C(F)(F)F)c3)n2)c1)C1CC1 in the same way.
active

Consider next the compound Cc1cc(F)c(Nc2ncnc3cc(OCc4ccccc4)ccc23)cc1O in the same way.
active

Consider next the compound Cn1c(NC[C@@H](N)Cc2ccccc2)nc(-c2ccncc2)c(-c2ccc3ccccc3c2)c1=O in the same way.
active

Consider next the compound CC(=O)N1c2ccc(-c3ccc(C(=O)O)cc3)cc2C(Nc2ccc(Cl)cc2)CC1C (stereo not given) in the same way.
active

Consider next the compound N#Cc1c2nc3ccccc3nc2n2ccc(NC(=O)c3cccs3)cc12 in the same way.
active

Consider next the compound CC(C)(C)c1ccc(CNC(=S)NCc2ccc(NS(C)(=O)=O)c(F)c2)cc1 in the same way.
active

Consider next the compound CN(C)CCCCCCNC(=O)c1cccc(-c2cc(O)c3ncccc3c2)c1 in the same way.
active

Consider next the compound Nc1ncnc2c1nc(Cl)n2C1O[C@H](CO)[C@@H](O)[C@H]1O (stereo not given in full) in the same way.
active

Consider next the compound O=c1cc(-c2ccc(O)cc2)oc2cc(OC3OC(CO)C(O)C(O)C3O)c(C3OC(CO)C(O)C(O)C3O)c(O)c12 (stereo not given) in the same way.
inactive

Reference source for all entries: PubChem BioAssay (NCATS)
